Assay: Plasma pharmacokinetics of CR665 after single IV infusion in human subjects
Settings: male, human, plasma, iv, 0.06 mg/kg, Vss, males, 0.06 mg/kg, 5-minute IV infusion, geometric mean
Counter-ions that a name gives are not always drawn. Non-standard residues stand in square brackets, D forms with d. Residues, ends and D or L forms follow the SMILES beside them. *: point of attachment. NH(4-picolyl) = c1cc(CN*)ccn1; dNle = CCCC[C@@H](N)C(=O)O
reported endpoint: Vd (L)
Expressed in L, but write only the number.

Identify the reported Vd for the following entry. CCCC[C@@H](NC(=O)[C@@H](Cc1ccccc1)NC(=O)[C@H](N)Cc1ccccc1)C(=O)N[C@H](CCCNC(=N)N)C(=O)NCc1ccncc1 [CR665, acetate salt] (H-[dF][dF][dNle][dR]-{NH(4-picolyl)})
16.6
